System: RBL-2H3 mast cells
Procedure Details: antigen induced IgE-mediated degranulation (β-hexoseaminidase release) of mast cells (RBL-2H3)
Assay type: cell-based, rat
Condition Description: anti-DNP IgE sensitized, DNP-BSA 100 ng/mL, 10 min pre-treatment; read-out: concentration achieving 50% inhibition of β-hexoseaminidase release
Parameter: IC50 (nM)
Note: unit nM is implicit; provide only the numeric part.

Input COC(=O)C1C(=O)C=C(NNc2ccccc2)CC1c1ccccc1 (centres unmarked) . Output IC50: 1200

Input CCOC(=O)C1C(=O)C=C(NNc2ccccc2)CC1c1ccccc1 (centres unmarked) . Output IC50: 800
